Data origin, for the record: a melting point compilation (Tetko et al.; mined from patent text by program, amines drawn as free bases though some values may be those of a salt)

The entries below come with measured melting point values attached.

| compound | melting point |
| --- | --- |
| NC(=O)CC1(c2ccccc2)C(=O)Nc2ccccc21 (configuration not stated) | 184 to 185 °C |
| COc1ccc(C(=O)Nc2ccc(Cl)cc2)cc1NC(=S)Nc1cc(Cl)cc(Cl)c1 | 180 to 185 °C |
| CC(=NOCc1ccccc1)c1cccc(S(N)(=O)=O)c1 | 136 to 139 °C |
| CC(C)(C)OC(=O)NC1(CCO)CC1 | 93 to 95 °C |
| OCc1ccccc1NCc1c(O)ccc2c1CCCO2 | 151 to 153 °C |
| CCOC(=O)C1=C(C)NC(=S)N(C(=O)OCC)C1c1ccccc1C (configuration not stated) | 112 to 114 °C |
| COc1ccc(-c2c(CO)[nH]c3cc(OC)c(OC)cc23)cc1 | 169 to 170 °C |

---

measured_metric: melting point

| molecule | result |
| --- | --- |
| CC(c1ccc2ncccc2c1)n1nnc2ccc(-c3cnn(CCO)c3)nc21 (stereo unspecified) | 188 to 191 °C |
| Cc1ccc(CS(=O)C2=C(O)CC(C)(C)CC2=O)cc1 (stereo unspecified) | 89 to 90.5 °C |
| CCOC(=O)c1ccc(NCCOc2cccc3ccccc23)cc1 | 124 to 127 °C |
| CCC1(CC)C(=O)N(C(C)(C)C)CC(C)(C)N1C(C)c1ccc(C(C)=O)cc1 (stereo unspecified) | 91 to 94 °C |
| C=CCSCC(O)(Cn1cncn1)c1ccc(Cl)cc1Cl (stereo unspecified) | 92 to 94 °C |
| CCOC(=O)C(C)(C)Oc1ccc(-c2ccc(CCNC(=O)c3ccc(OC)c(OC)c3)cc2)cc1 | 118 °C |
| CCCCOC(=O)c1c(-c2cnccn2)ssc1=S | 127 °C |
| CC(C)(C)C(C)(C)Nc1nc(NC(C)(C)C(C)(C)C)nc(N2CC3CCC(CC3)C2)n1 | 282 to 284 °C |
| CCCCCCC(C)(C)c1ccc(C2=CC(=O)CCC2)c(O)c1 | 122 to 123 °C |
| CCCCC1Oc2ccc(Cl)cc2N(CC(O)CO)C1=O (stereo unspecified) | 69.5 °C |
| CC1CCCN(c2nc(S(C)(=O)=O)nc(Cl)c2-c2c(F)cc(F)cc2F)O1 (stereo unspecified) | 160 to 162 °C |
| Cc1cc(-n2cnn(Cc3ccc(F)cc3)c2=O)sc1C(=O)NCc1cnn(C)c1 | 168 to 170 °C |
| COc1ccc2[nH]nc(N3CCN(CCCc4c(C)[nH]c5ccccc45)CC3)c2c1 | 145 to 147 °C |
| CC(C)(C)[Si](Oc1ccc(OCC2CO2)cc1)(c1ccccc1)c1ccccc1 (stereo unspecified) | 97 to 98 °C |
| c1ccc2c(c1)-c1ccccc1C21c2ccccc2-c2ccc(-n3ccnc3-c3nccn3-c3ccc4c(c3)C3(c5ccccc5-c5ccccc53)c3ccccc3-4)cc21 | 404 to 412 °C |
| CNc1n[nH]c(=O)n1NC | 135 to 137 °C |
| O=C(O)c1ccc(OCCNC(=O)C2Cc3ccccc3N2S(=O)(=O)c2ccc(-c3ccc(F)cc3F)cc2)cc1 (stereo unspecified) | 92 °C |
| C[C@]1(CN2CCN(C3CCN(CC=Cc4ccc(OC(F)(F)F)cc4)CC3)CC2)Cn2cc([N+](=O)[O-])nc2O1 | 157 to 158 °C |
| COC(=O)c1ncoc1CCNC(=O)OCc1ccccc1 | 68 to 70 °C |
| O=C(Nc1ccc(-n2nc(C(F)(F)F)cc2C(F)(F)F)cc1)c1ccc([N+](=O)[O-])cc1 | 185 to 188 °C |
| CCCCN1C(=O)NC(=Cc2ccc(C(=O)OC)cc2)C1=O | 212 °C |
| Cc1oc(-c2ccccc2)nc1COc1ccc(COc2ccc(CC(=O)O)cc2)cc1 | 166 to 167 °C |
| COC(=O)c1ccc(N=Cc2ccc(Cl)c(Cl)c2)cn1 | 202 to 207 °C |
| C=CCc1c(OCC(O)CSCCO)ccc(C(C)=O)c1O (stereo unspecified) | 54 to 56 °C |
| Nc1sc2c(c1C(=O)c1cccs1)CCC(Cc1ccccc1)C2 (stereo unspecified) | 116 to 118 °C |
| CCN(CC)CCNc1nc2ccccc2n(-c2ccc(Cl)cc2)c1=O | 96 to 98 °C |
| CS(=O)(=O)NCCS(=O)(=O)N1CCN(S(=O)(=O)c2ccc(-c3ccc(C(F)(F)F)cc3)s2)[C@@H](C(=O)NO)C1 | 105 to 108 °C |
| O=C1c2ccccc2C(=O)c2sccc21 | 232 to 234 °C |
| CCN1c2ncccc2C(=O)N(C)c2ccc(-c3c[nH]c(C(=O)O)c3)nc21 | 256 to 257 °C |
| COc1ccc(C(CS(C)(=O)=O)N2C(=O)c3cccc(NC(C)=O)c3C2=O)cc1OCC1CC1 (stereo unspecified) | 102 to 104 °C |
| O=C(O)[C@H](Cc1ccccc1)NS(=O)(=O)c1ccc(N2CCN(c3ccccc3)CC2)cc1 | 192 to 193 °C |
